Measured koff, listed per entry for reference.
target: Cynomolgus monkey IL-1β (cynomolgus monkey); experiment: Biacore low-res, mAb captured, cyno IL-1β 117 nM, 25C
Sequence (P48090 117-269 limits assumed): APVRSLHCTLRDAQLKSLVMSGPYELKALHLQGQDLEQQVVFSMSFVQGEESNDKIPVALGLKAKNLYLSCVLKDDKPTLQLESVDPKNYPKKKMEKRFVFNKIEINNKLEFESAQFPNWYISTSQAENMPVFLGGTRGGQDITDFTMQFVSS
The figure you give is taken to be in s⁻¹; do not add the unit.

Known results for binders:
| BINDER | ASSAY_ENDPOINT | MEAS_VALUE |
| --- | --- | --- |
| 9.19.1 (antibody, human IgG4, V domains shown) VH: QVQLVESGGGVVQPGRSLRLSCAASGFTFNNYGMHWVRQAPGKGLECVAVIWYDGGNKYYADSVKGRFAISRDNSKNTLYLQMNSLRAEDTAVYYCTAVTKLNYYYGMDVWGQRTTVTVS VL: QSALTQPASVSGSPGQSITISCTGTSSDVGGYNYVSWYQQHPGKAPKFMIYEVSNRPSGVSNRFSGSKSGNTASLTISGLQAEDEADYYCSSYTSSSILVFGGGTKLTVL | koff | 0.00012 |
| 8.50.1 (antibody, human IgG4, V domains shown) VH: QVQLQESGPGLVKPSETLSLTCTVSGGSISSDYWSWIRQPAGKGLEWIGRFYNSGRTNYRPSLKSRITMSVDTSKNQFSLKLSSVTAADTAVYYCARDMYSGRGNWYFDLWGRGTLVTVS VL: SYELTQPPSVSVSPGQTARITCSGDALPKKYAYWYQQKSGQAPVLVIYEDSKRPSGIPERFSGSSSGTMATLTISGAQVEDEADYYCYSTDSSDNHRVFGGGTKLTVL | koff | 0.0012 |
| 8.18.1 (antibody, human IgG4, V domains shown) VH: QVQLQESGPGLVKPSETLSLTCTVSGGSVSSGGYYWSWIRQPPGKGLEWIGYFYYSGSPNYNPSLKRRIAISVDTSKNQFSLRLSSVTAADTAVYYCARDPMHYYGMDVWGQGTTVTVSS VL: SSELTQPPSVSVFPGQTANITCSGDKLGDKFACWYQQKPGQSPVLVIYRDNKRPSGIPERFSGSNSGNTATLTISGTQAMDEADYYCQAWDSSTYVVFGGGTKLTVL | koff | 9.2e-05 |

[Q] # get_value(readout='koff', item= 5.36.1 (antibody, human IgG4, V domains shown) VH: QVQLQQSGPGLVKPSQTLSLTCAISGDSVSSNSAAWNWIRQSPSRGLEWLGRTYYRSKWYNDYAVSVKSRITINPDTSKNQFSLQLNSVTPEDTAVYYCAREEQQLVRYYYYYGMDVWGQGTTVTVS VL: DIVMTQTPLSLSVTPGQPASISCKSSQSLLHSDGRTYLYWYLQRPGQPPQLLIYEASYRFSGVPDRFSGSGSGTDFTLKISRVEAEDVGIYYCMQSIQLPRTFGQGTRLEIK )
[A] 0.00072

[Q] # get_value(readout='koff', item= 9.11.1 (antibody, human IgG4, V domains shown) VH: QVQLVESGGGVVQPGRSLRLSCAASGFTFSVYGMHWVRQAPGKGLEWVAVIWYDGNNKYYVDSVKGRFTISRDNSKNTLYLQLNSLRAEDTAVYYCARERSSSWYFDYWGQGTLVTVSS VL: QSALTQPASVSGSSGQSITISCTGTSSDVGSYNLVSWYQQHPGKAPKLMIYEVSKRPSGVSNRFSGSKSGNTASLTISGLQAEDEADYYCCSYAGNSNWVFGGGTKLTVL )
[A] 0.00027

[Q] # get_value(readout='koff', item= 9.2.1 (antibody, human IgG4, V domains shown) VH: QVQLVESGGGVVQPGRSLRLSCAASGFTFNNYGMHWVRQAPGKGLECVAVIWYDGGNKYYADSVKGRFAISRDNSKNTLYLQMNSLRAEDTAVYYCTAVTTLYYYYGMDVWGQGTTVTVS VL: QSALTQPASVSGSPGQSITISCTGTSSDVGGYNYVSWYQQHPGKAPKLMIYEVSNRPSGVSNRFSGSKSGNTASLTISGLQAEDEADYYCSSYTSSSILVFGGGTKLTVL )
[A] 0.0014

[Q] # get_value(readout='koff', item= 9.31.1 (antibody, human IgG4, V domains shown) VH: QVQLVESGGGLVKPGGSLRLSCAASGFTFSDYYMSWIRQAPGKGLEWVSYIRSSGSTIYYADSVKGRFTISRDNAKNSLYLQMNSLRAEDTAVYYCARTPYSGRYHWYFDLWGRGTLVTVS VL: SYELTQPPSVSVSPGQTARITCSGDALPIKYAYWYQHKSGQAPVLVIYEDSKRPSGIPERFSGSSSGTMATLTISGAQVEDEADYYCYSTDSSGNHRVFGGGTKLTVL )
[A] 0.0015

[Q] # get_value(readout='koff', item= 9.26.1 (antibody, human IgG4, V domains shown) VH: QVQLVESGGGVVQPGRSLRLSCAASGFTFNNYGMHWVRQAPGKGLECVAVIWYDGGNKYYADSVKGRFAISRDNSKNTLYLQMNSLRAEDTAVYYCTAVTKLNYYYGMDVWGQGTTVTVS VL: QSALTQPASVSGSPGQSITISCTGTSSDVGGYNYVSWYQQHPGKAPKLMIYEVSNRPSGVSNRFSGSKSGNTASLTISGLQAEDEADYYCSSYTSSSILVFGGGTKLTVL )
[A] 0.0002
